- Test system: Aspergillus oryzae
- ASSAY_NOTES: Inhibition of Aspergillus oryzae beta-galactosidase using 2-chloro-4-nitrophenyl b-dgalactopyranoside substrate by Eddie-Hofstee plot
Calls of active or inactive are those of the source. The calls are words filed in the database; no cut-off is given here.
MEASURED_ENDPOINT: inhibition activity (qualitative)

Look over these answered cases.
Incoming: Fill in the blank: the reported inhibition activity (qualitative) of CCC/N=C1\N[C@H](CO)[C@H](O)[C@H](O)[C@H]1O is ____.
Outgoing: Active

Incoming: Fill in the blank: the reported inhibition activity (qualitative) of COc1ccc(C/N=C2\N[C@H](CO)[C@H](O)[C@H](O)[C@H]2O)cc1 is ____.
Outgoing: Active

Incoming: Fill in the blank: the reported inhibition activity (qualitative) of OC[C@H]1N/C(=N\CC2CCCCC2)[C@H](O)[C@@H](O)[C@H]1O is ____.
Outgoing: Active

Incoming: Fill in the blank: the reported inhibition activity (qualitative) of O=C1N[C@H](CO)[C@H](O)[C@H](O)[C@H]1O is ____.
Outgoing: Active

Incoming: Fill in the blank: the reported inhibition activity (qualitative) of Cc1ccccc1C/N=C1\N[C@H](CO)[C@H](O)[C@H](O)[C@H]1O is ____.
Outgoing: Active

Incoming: Fill in the blank: the reported inhibition activity (qualitative) of OC[C@H]1N/C(=N\Cc2cccc(F)c2)[C@H](O)[C@@H](O)[C@H]1O is ____.
Outgoing: Active

Incoming: Fill in the blank: the reported inhibition activity (qualitative) of OC[C@H]1N/C(=N\CCCc2ccccc2)[C@H](O)[C@@H](O)[C@H]1O is ____.
Outgoing: Active

Incoming: Fill in the blank: the reported inhibition activity (qualitative) of OC[C@H]1N/C(=N\CC2CCCCCC2)[C@H](O)[C@@H](O)[C@H]1O is ____.
Outgoing: Active

Incoming: Fill in the blank: the reported inhibition activity (qualitative) of OC[C@H]1N/C(=N\C2CC2)[C@H](O)[C@@H](O)[C@H]1O is ____.
Outgoing: Active

Okay, now this molecule:
Incoming: Fill in the blank: the reported inhibition activity (qualitative) of CO[C@@H]1[C@H](O)[C@@H](O)C(NCc2ccc(C)cc2)=N[C@@H]1CO is ____.
Outgoing: Active

----------
Form field: pIC50 (one value per entry).
- ASSAY_NOTES: Inhibition of Aspergillus oryzae beta-galactosidase using 2-chloro-4-nitrophenyl b-dgalactopyranoside substrate relative to control
Scale: negative log10 of molar concentration, which is what pIC50 denotes.

Incoming: Fill in the blank: the reported pIC50 of CCCCCCCCCCCNC1=N[C@H](CO)[C@H](O)[C@H](O)[C@H]1O is ____.
Outgoing: 7.47

Incoming: Fill in the blank: the reported pIC50 of CCCCCCC/N=C1\N[C@H](CO)[C@H](O)[C@H](O)[C@H]1O is ____.
Outgoing: 6.97

New cases:
Incoming: Fill in the blank: the reported pIC50 of N=C1N[C@H](CO)[C@H](O)[C@H](O)[C@H]1O is ____.
Outgoing: 6.08

Incoming: Fill in the blank: the reported pIC50 of COc1ccc(C/N=C2\N[C@H](CO)[C@H](O)[C@H](O)[C@H]2O)cc1 is ____.
Outgoing: 6.82

Incoming: Fill in the blank: the reported pIC50 of OC[C@H]1N/C(=N\Cc2cccc(F)c2)[C@H](O)[C@@H](O)[C@H]1O is ____.
Outgoing: 6.94

----------
- EXPERIMENTAL_TARGET: Beta-galactosidase (Bos taurus, UniProt Q58D55)
Form field: IC50 (one value per entry).
State just the number; it will be interpreted in nM.

Incoming: Fill in the blank: the reported IC50 of CCC/N=C1\N[C@H](CO)[C@H](O)[C@H](O)[C@H]1O is ____.
Outgoing: 1030

New cases:
Incoming: Fill in the blank: the reported IC50 of Cc1cccc(C/N=C2\N[C@H](CO)[C@H](O)[C@H](O)[C@H]2O)c1 is ____.
Outgoing: 16.2

Incoming: Fill in the blank: the reported IC50 of CCCCCCCCCCCNC1=N[C@H](CO)[C@H](O)[C@H](O)[C@H]1O is ____.
Outgoing: 42.7

Incoming: Fill in the blank: the reported IC50 of OC[C@H]1N/C(=N\Cc2cccc(F)c2)[C@H](O)[C@@H](O)[C@H]1O is ____.
Outgoing: 9.4

Incoming: Fill in the blank: the reported IC50 of CCCCCCC/N=C1\N[C@H](CO)[C@H](O)[C@H](O)[C@H]1O is ____.
Outgoing: 24.1

Incoming: Fill in the blank: the reported IC50 of Cc1ccccc1C/N=C1\N[C@H](CO)[C@H](O)[C@H](O)[C@H]1O is ____.
Outgoing: 118

Incoming: Fill in the blank: the reported IC50 of COc1ccc(C/N=C2\N[C@H](CO)[C@H](O)[C@H](O)[C@H]2O)cc1 is ____.
Outgoing: 26.2

Incoming: Fill in the blank: the reported IC50 of OC[C@H]1N/C(=N\CC2CCCCC2)[C@H](O)[C@@H](O)[C@H]1O is ____.
Outgoing: 11.6

Incoming: Fill in the blank: the reported IC50 of Cc1ccc(C/N=C2\N[C@H](CO)[C@H](O)[C@H](O)[C@H]2O)cc1 is ____.
Outgoing: 57.6

Incoming: Fill in the blank: the reported IC50 of OC[C@H]1N/C(=N\CC2CCCCCC2)[C@H](O)[C@@H](O)[C@H]1O is ____.
Outgoing: 45.4

Incoming: Fill in the blank: the reported IC50 of OC[C@H]1N/C(=N\Cc2ccccc2)[C@H](O)[C@@H](O)[C@H]1O is ____.
Outgoing: 18.9

Incoming: Fill in the blank: the reported IC50 of CCCCC(CC)CNC1=N[C@H](CO)[C@H](O)[C@H](O)[C@H]1O (stereo partly specified) is ____.
Outgoing: 21.6

Incoming: Fill in the blank: the reported IC50 of OC[C@H]1N/C(=N\Cc2ccccc2F)[C@H](O)[C@@H](O)[C@H]1O is ____.
Outgoing: 43.1

Incoming: Fill in the blank: the reported IC50 of CO[C@@H]1[C@H](O)[C@@H](O)C(NCc2ccc(C)cc2)=N[C@@H]1CO is ____.
Outgoing: 9200

Incoming: Fill in the blank: the reported IC50 of O=C1N[C@H](CO)[C@H](O)[C@H](O)[C@H]1O is ____.
Outgoing: 8700

Incoming: Fill in the blank: the reported IC50 of OC[C@H]1N/C(=N\Cc2ccc(F)cc2)[C@H](O)[C@@H](O)[C@H]1O is ____.
Outgoing: 9.1

Incoming: Fill in the blank: the reported IC50 of CO[C@H]1C(NCc2ccc(C)cc2)=N[C@H](CO)[C@H](O)[C@@H]1O is ____.
Outgoing: 10800

Incoming: Fill in the blank: the reported IC50 of CC(C)(C)c1ccc(C/N=C2\N[C@H](CO)[C@H](O)[C@H](O)[C@H]2O)cc1 is ____.
Outgoing: 412

----------
- EXPERIMENTAL_TARGET: Beta-galactosidase (Bos taurus, UniProt Q58D55)
- Sequence (Q58D55 whole entry): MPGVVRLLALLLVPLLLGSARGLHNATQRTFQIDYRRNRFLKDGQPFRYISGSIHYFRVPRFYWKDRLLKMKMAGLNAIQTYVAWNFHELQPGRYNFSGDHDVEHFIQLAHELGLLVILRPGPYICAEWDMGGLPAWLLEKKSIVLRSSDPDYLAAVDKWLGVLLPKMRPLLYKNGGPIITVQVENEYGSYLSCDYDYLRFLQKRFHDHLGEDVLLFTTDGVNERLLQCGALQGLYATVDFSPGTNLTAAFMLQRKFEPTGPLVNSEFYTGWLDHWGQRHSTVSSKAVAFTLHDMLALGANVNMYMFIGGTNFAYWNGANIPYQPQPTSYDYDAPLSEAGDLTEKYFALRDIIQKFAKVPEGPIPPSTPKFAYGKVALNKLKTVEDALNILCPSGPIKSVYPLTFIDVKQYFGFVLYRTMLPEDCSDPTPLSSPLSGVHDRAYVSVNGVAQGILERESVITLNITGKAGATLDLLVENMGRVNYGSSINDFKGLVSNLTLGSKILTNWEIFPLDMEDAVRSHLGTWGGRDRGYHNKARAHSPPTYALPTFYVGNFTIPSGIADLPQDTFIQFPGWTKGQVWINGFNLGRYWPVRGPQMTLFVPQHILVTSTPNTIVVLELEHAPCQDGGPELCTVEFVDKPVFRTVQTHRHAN
MEASURED_ENDPOINT: log10 of Ki (log10 of the value in nM)
Values reflect log10 of reported Ki (nM).

Look over these answered cases.
Incoming: Fill in the blank: the reported log10 of Ki of OC[C@H]1N/C(=N\CC2CCCCCC2)[C@H](O)[C@@H](O)[C@H]1O is ____.
Outgoing: -0.80

Incoming: Fill in the blank: the reported log10 of Ki of OC[C@H]1N/C(=N\Cc2ccccc2F)[C@H](O)[C@@H](O)[C@H]1O is ____.
Outgoing: -0.64

Incoming: Fill in the blank: the reported log10 of Ki of CO[C@@H]1[C@H](O)[C@@H](O)C(NCc2ccc(C)cc2)=N[C@@H]1CO is ____.
Outgoing: 2.92

Incoming: Fill in the blank: the reported log10 of Ki of CCCCCCC/N=C1\N[C@H](CO)[C@H](O)[C@H](O)[C@H]1O is ____.
Outgoing: -0.96

Incoming: Fill in the blank: the reported log10 of Ki of OC[C@H]1N/C(=N\C2CC2)[C@H](O)[C@@H](O)[C@H]1O is ____.
Outgoing: -0.49

New cases:
Incoming: Fill in the blank: the reported log10 of Ki of OC[C@H]1N/C(=N\Cc2ccc(C(F)(F)F)cc2)[C@H](O)[C@@H](O)[C@H]1O is ____.
Outgoing: -0.80

All values here come from ChEMBL document CHEMBL4043205.
